Values were extracted from ChEMBL document CHEMBL1146936.

Measured half-life, listed per entry for reference.
assay: Half life in Wistar rat at 3 mg/kg, iv; type: ADME, organism-based; design: dose 3 mg/kg, route intravenous; details: in vivo
Reported Endpoint: half-life (h)

smi=C[C@@H](CN1CCc2cc(F)ccc21)NC(=O)[C@H](CC1CCCCC1)Nc1nc2cccc(Cl)c2o1 reported_endpoint=half-life value_measured=2.3
smi=COc1ccc(NCCNC(=O)[C@H](CC2CCCCC2)Nc2nc3ccccc3o2)cc1 reported_endpoint=half-life value_measured=4.8
smi=C[C@@H](CN1CC(C)(C)c2cc(F)ccc21)NC(=O)[C@H](CC1CCCCC1)Nc1nc2cccc(Cl)c2o1 reported_endpoint=half-life value_measured=8.3
smi=O=C(O)C[C@@H](CN1CCc2cc(F)ccc21)NC(=O)[C@H](CC1CCCCC1)Nc1nc2ccc(Cl)cc2o1 reported_endpoint=half-life value_measured=1
